Experiment Summary: Baking trials with ready-to-eat baking mixture (lemon cake) in a microwave oven
Condition Context: assessment scale from ΔT
Protocol: A ready-to-eat baking mixture for lemon cakes from […] was used as the basic recipe. […] Whole egg and sugar were put into a mixing container and mixed. The powder mixture of the composition (wheat flour, cooking salt and so forth) was slowly mixed in. Vegetable oil, flavouring substances and alcohol were then slowly added and mixing was effected for 12 minutes. After that baking raising agent was added and mixed at a medium stage for a further 2 minutes. […]
Quantity: Microwave activity

Molecule	Quantity	Meas Value
O=P([O-])(O)OP(=O)([O-])O.[Ca+2] [CAPP, Acid calcium pyrophosphate]	Microwave activity	1 (ΔT=>20° C.=very good)
O=P([O-])([O-])OP(=O)([O-])[O-].O=P([O-])([O-])OP(=O)([O-])[O-].O=P([O-])([O-])OP(=O)([O-])[O-].[Fe+3].[Fe+3].[Fe+3].[Fe+3] [FePP, Iron-III-pyrophosphate]	Microwave activity	1 (ΔT=>20° C.=very good)
O=P([O-])([O-])[O-].[Fe+3] [FeOP, Iron-III-orthophosphate]	Microwave activity	2 (ΔT=15 to <20° C.=good)

Then this molecule:
Query block: Look at this molecule and give its reported Microwave activity. O=P([O-])([O-])OP(=O)([O-])[O-].[Mg+2].[Mg+2] [MgPP, Magnesium pyrophosphate]
Result block: 2 (ΔT=15 to <20° C.=good)

* * *

Experiment Summary: Pore volume by nitrogen gas adsorption (BJH method, BELSORP-mini II)
Type: physicochemical
Condition Context: total pore volume Vp, nitrogen adsorption at 77.3 K
Quantity: Pore Volume

Molecule	Quantity	Meas Value
O=S(=O)([O-])[O-].O=S(=O)([O-])[O-].[Al+3].[Na+] [SAS, Acid sodium aluminium sulphate]	Pore Volume	3.9 10^−3 cm^3/g
O=P([O-])(O)OP(=O)([O-])O.[Ca+2] [CAPP, Acid calcium pyrophosphate]	Pore Volume	3.6 10^−3 cm^3/g
O=P([O-])([O-])[O-].[Fe+3] [FeOP, Iron-III-orthophosphate]	Pore Volume	19 10^−3 cm^3/g

Then this molecule:
Query block: Look at this molecule and give its reported Pore Volume. O=P([O-])([O-])[O-].O=P([O-])([O-])[O-].[Ca+2].[Ca+2].[Ca+2] [TCP, Tricalcium phosphate]
Result block: 120 10^−3 cm^3/g

* * *

Experiment Summary: Thawing and baking trials with yeast-raised wheat frozen doughs in a microwave oven
Condition Context: assessment scale from ΔT; yeast-raised wheat frozen dough
Below, each of the molecules is paired with its reported Microwave activity value.

Examples with answers:
Molecule	Meas Value
O=P([O-])([O-])OP(=O)([O-])[O-].[Na+].[Na+].[Na+].[Na+] [TSPP, Tetrasodium pyrophosphate]	1 (ΔT=>40° C.=very good)
[Cl-].[Cl-].[Mg+2] [MgCl2(V), Magnesium chloride, reference compound]	3 (ΔT=<25° C.=no additional activity)
O.O.O=P([O-])([O-])O.[Ca+2] [DCPD, Dicalcium phosphate dihydrate]	2 (ΔT=25 to 40° C.=good)
O=P([O-])([O-])OP(=O)([O-])[O-].[Mg+2].[Mg+2] [MgPP, Magnesium pyrophosphate]	1 (ΔT=>40° C.=very good)
O=P(O)(O)OP(=O)(O)OP(=O)(O)O [STPP(V), Sodium tripolyphosphate, reference compound]	3 (ΔT=<25° C.=no additional activity)
O=S(=O)([O-])[O-].O=S(=O)([O-])[O-].[Al+3].[Na+] [SAS, Acid sodium aluminium sulphate]	2 (ΔT=25 to 40° C.=good)
O=P([O-])([O-])OP(=O)([O-])[O-].[Cu+2].[Cu+2] [CuPP, Copper-II pyrophosphate]	2 (ΔT=25 to 40° C.=good)
O=C([O-])[O-].[Ca+2] [CaCO3, Calcium carbonate]	2 (ΔT=25 to 40° C.=good)

Query block: Look at this molecule and give its reported Microwave activity. [Mg+2].[OH-].[OH-] [Mg(OH)2, Magnesium hydroxide]
Result block: 1 (ΔT=>40° C.=very good)

Query block: Look at this molecule and give its reported Microwave activity. O=C([O-])CC(O)(CC(=O)[O-])C(=O)[O-].O=C([O-])CC(O)(CC(=O)[O-])C(=O)[O-].[Ca+2].[Ca+2].[Ca+2] [TCC, Tricalcium citrate]
Result block: 2 (ΔT=25 to 40° C.=good)

Query block: Look at this molecule and give its reported Microwave activity. O=P([O-])(O)OP(=O)([O-])O.[Ca+2] [CAPP, Acid calcium pyrophosphate]
Result block: 1 (ΔT=>40° C.=very good)

Query block: Look at this molecule and give its reported Microwave activity. O.O.O.O.O=P([O-])([O-])[O-].O=P([O-])([O-])[O-].[Mg+2].[Mg+2].[Mg+2] [TMP, Trimagnesium phosphate tetrahydrate]
Result block: 1 (ΔT=>40° C.=very good)
